These entries and their values trace back to patent US20160187553A1.

experiment: logP of additives A and B of the protective films
Quantity Kind: logP

| Molecule | Quantity Kind | Endpoint Result |
| --- | --- | --- |
| CCC(COC(=O)c1ccccc1)(COC(=O)c1ccccc1)COC(=O)c1ccccc1 [Compound 16] | logP | 7.9 |
| O=P(Oc1ccccc1)(Oc1ccccc1)Oc1ccccc1 [TPP, Triphenyl phosphate] | logP | 5.6 |

[a] O=C(OCC(COC(=O)c1ccccc1)(COC(=O)c1ccccc1)COC(=O)c1ccccc1)c1ccccc1 [PETB, pentaerythritol-tetrabenzoate]
[b] CCOC(=O)COC(=O)c1ccccc1C(=O)OCC [EPEG, Ethylphthalyl ethylglycolate]
IN: Hi team, can someone confirm which has the larger logP: a or b ? Thanks. Reply with the label of the item you choose.
OUT: a
